Values compiled from patent US20230192824A1.

// MIC in HAI lookup, one value per entry
Molecular target: T1, CotD, tip adhesin of CS2 fimbriae on wild type ETEC strain C91f (Escherichia coli (ETEC) strain C91f)
T1 chain: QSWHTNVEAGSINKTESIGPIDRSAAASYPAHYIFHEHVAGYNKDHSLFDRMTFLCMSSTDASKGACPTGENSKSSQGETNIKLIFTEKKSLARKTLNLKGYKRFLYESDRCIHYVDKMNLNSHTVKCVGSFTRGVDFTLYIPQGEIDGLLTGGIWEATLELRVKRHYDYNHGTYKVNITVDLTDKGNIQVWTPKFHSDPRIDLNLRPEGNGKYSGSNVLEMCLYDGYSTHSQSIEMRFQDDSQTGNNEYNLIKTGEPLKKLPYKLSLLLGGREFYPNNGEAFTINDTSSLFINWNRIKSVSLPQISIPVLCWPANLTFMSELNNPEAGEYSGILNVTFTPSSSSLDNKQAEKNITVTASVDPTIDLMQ
Assay: cell-based or functional assay

anti-CfaE mouse mAb P1F9 (antibody, V domains shown) VH: QVQLQQPGAELVKPGASVKLSCKASGYTFTSYWMHWVRQRPGQGLDWIGEIDPSDSYINYNQKFKGKATLTVDKSSSTAYMQLSSLTSEDSAVYYCGRKSLGVSVLAYWGQGTPVTVSA VL: DIVMTQSHKFMSTSVGDRVSISCTASQDVNAAVAWYQQKPGQSPKLLIYWASTRHTGVPDRFTGSGSGTDYTLTISSVQAEDLALYYCQQHYSTPLTFGAGTKLELK :: > 250 µg/mL
anti-CotD mouse mAb P6B8 (antibody, V domains shown) VH: QVTLKESGPGILQPSQTLSLTCSFSGFSLSTSGMGVGWIRQPSGKGLEWLSHIWWDDEKRYNPALKSRLTISKDTSSNQVFLKIASVDTADTATYYCARIGDRSGHAGFVYWGQGTLVTVSA VL: DIKMTQSPSSMYASLGERVTITCKASQDINSYLSWFQQKPGKSPKTLIYRANRLVDGVPSRFSGSGSGQDYSLTISSLEYEDMGTYYCLQYDEFPYTFGGGTKLEIK :: 3 µg/mL

We now examine a further binder.
stdin: Look up MIC in HAI for this binder: anti-CsbD mouse mAb P9A5 (antibody, V domains shown, Isotype n.d) VH: EVQLQQFGAEVVKPGASVKISCKASGYTFTDYNIDWVKQSHGESLEWIGDISPNSEGTTYNQKFKGQATLTIDKSSTTAYMELRSLTSEDSAVYYCARGSGIWNGLDYWGQGTSVTVSS VL: DIVMTQSHKFMSTSVGDRVSITCKASQDVSTAVAWYQQKPGQSPQLLIYSSSYRYVGVPDRFTGSGSGTDFTFTISSVQAEDLAVYYCHQHYSLPYTFGGGTKLEIK
stdout: > 250 µg/mL
